Entry source: PubChem BioAssay

PROCEDURE_TEXT: non-specific cell cytotoxicity, dose response, cytotoxicity control for PAX8 inhibitor project, plate reader, dry powder samples (AID 743021)
CONDITION_SUMMARY: cell line, non-specific cytotoxicity counter-screen; series mostly up to 35 µM
Measured potencies and affinities stand elsewhere. Records with an inconclusive call do not appear. The source made the active and inactive calls. No rule for the calls is given here.
ENDPOINT_NAME: activity change, negative = cytotoxicity

CC(C)OCCCNC(=O)c1cccc(NC(=O)c2ccccc2)c1 | inactive
Cc1cccc(C)c1NS(=O)(=O)c1ccc(-c2cnc(C3CC3)o2)cc1 | inactive
C[C@@H]1CN([C@@H](C)CO)C(=O)Cc2cc(N(C)C)ccc2O[C@H]1CN(C)Cc1ccc(Oc2ccccc2)cc1 | inactive
CC(C)CC#Cc1ccc2c(c1)O[C@H](CN(C)Cc1ccc(F)cc1)[C@H](C)CN([C@H](C)CO)S2(=O)=O | inactive
C[C@@H]1CN([C@H](C)CO)C(=O)c2cc(NC(=O)Nc3ccccc3)ccc2O[C@@H](C)CCCCO[C@@H]1CN(C)Cc1ccc(C(F)(F)F)cc1 | inactive
C[C@H]1CN([C@@H](C)CO)S(=O)(=O)c2ccc(C#Cc3ccc(F)cc3)cc2O[C@@H]1CN(C)C(=O)NC1CCCCC1 | inactive
C[C@@H]1CCCCO[C@H](CN(C)CC2CCCCC2)[C@H](C)CN([C@@H](C)CO)C(=O)c2cc(NC(=O)Nc3ccccc3)ccc2O1 | inactive
C[C@@H]1CCCCO[C@@H](CN(C)Cc2ccc(Cl)c(Cl)c2)[C@H](C)CN([C@@H](C)CO)C(=O)c2cc(NC(=O)Cc3ccccc3)ccc2O1 | inactive
C[C@@H]1CCCCO[C@H](CN(C)Cc2ccc(Cl)c(Cl)c2)[C@@H](C)CN([C@@H](C)CO)C(=O)c2cc(NC(=O)Nc3ccc(C(F)(F)F)cc3)ccc2O1 | inactive
Cc1ccc(-c2ccc([C@@H]3[C@H](CO)N4CCCCN(C(=O)Nc5cccc(F)c5)C[C@@H]34)cc2)cc1 | inactive

Could you share which activity change, negative = cytotoxicity value was measured for NC(=O)[C@H]1CC2(CC(c3cccc(NC(=O)COc4ccc(Cl)cc4)c3)=NO2)CN1C(=O)C(c1ccccc1)c1ccccc1 (stereo not given in full) ?
inactive

Then this compound: "N#C[C@@H]1[C@H](c2ccc(C#CC3CCCCC3)cc2)[C@H](CO)N1S(=O)(=O)c1ccccc1"
inactive

Then this compound: "CCCC#Cc1ccc2c(c1)O[C@H](CN(C)Cc1ccccc1)[C@@H](C)CN([C@H](C)CO)S2(=O)=O"
inactive

Then this compound: "C[C@@H]1CCCCO[C@@H](CN(C)C(=O)Nc2cccc3ccccc23)[C@H](C)CN([C@H](C)CO)C(=O)c2cc(NS(=O)(=O)c3ccc(Cl)cc3)ccc2O1"
inactive

Then this compound: "COc1cccc(S(=O)(=O)N(C)C[C@@H]2Oc3cc(C4=CCCCC4)ccc3S(=O)(=O)N([C@@H](C)CO)C[C@H]2C)c1"
inactive

Then this compound: "C[C@@H]1CN([C@@H](C)CO)C(=O)Cc2cc(NC(=O)Nc3ccc4c(c3)OCO4)ccc2O[C@H]1CN(C)CC1CCCCC1"
inactive

###

PROCEDURE_TEXT: MM1S cell viability effects, profiling panel, calcein-AM fluorescence, 48 h, basal (AID 1165);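 also: viability of MM1S multiple myeloma cells under basal unstimulated conditions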
CONDITION_SUMMARY: higher = more signal
Recorded z-score values for a group of compounds are listed next.
Response field accepts a number only; no unit should be typed.

Example entries and their recorded answers appear below.
CC(C)(C)OC(=O)CC[C@]1(C(=O)NCc2ccccc2)N=C(c2ccc(OCCCO)cc2)O[C@H]1c1ccccc1N=[N+]=[N-] | -0.369
COc1ccc([Si](C)(C)[C@H]2[C@H](CC(=O)N3Cc4ccccc4C[C@H]3CO)O[C@@]3(C(=O)N(Cc4cccc(N5C(=O)COc6ccccc65)c4)c4ccccc43)[C@@H]2C)cc1 | -0.227

Let's switch to this compound now.
Could you share which z-score value was measured for C=CCC(OC(C)=O)[C@@H]1[C@@H](N(Cc2cccc3ccccc23)C(=O)Cc2ccc(OC)cc2)c2cc(OCCCO)ccc2N1C(=O)Cc1ccc(OC)cc1 (stereo partly drawn) ?
1.76

###

SYSTEM_TESTED: Torsin-1A (Homo sapiens) (UniProt O14656)
Sequence (O14656 whole entry, looked up): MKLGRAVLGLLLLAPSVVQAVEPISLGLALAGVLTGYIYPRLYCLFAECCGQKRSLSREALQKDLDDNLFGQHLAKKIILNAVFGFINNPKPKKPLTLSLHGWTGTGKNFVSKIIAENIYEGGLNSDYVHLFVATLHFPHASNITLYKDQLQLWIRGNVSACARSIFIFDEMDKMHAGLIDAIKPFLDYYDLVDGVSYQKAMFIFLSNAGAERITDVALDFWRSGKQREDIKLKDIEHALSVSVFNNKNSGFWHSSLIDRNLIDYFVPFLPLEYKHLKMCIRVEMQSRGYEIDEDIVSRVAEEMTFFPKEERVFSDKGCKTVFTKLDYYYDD
PROCEDURE_TEXT: torsin A binders from cell lysate, primary screen, small-molecule microarray, wild-type, 635/667 nm (AID 1149)
CONDITION_SUMMARY: COS7 hTOR1A-WT lysate, 635 nm fluorescence, higher = more signal
Recorded composite z-score values for a group of molecules are listed next.
Response field accepts a number only; no unit should be typed.

Could you share which composite z-score value was measured for "CC(C)(C)OC(=O)CC[C@@]1(C(=O)N2CCOCC2)N=C(c2ccc(OCCCO)cc2)O[C@@H]1c1ccccc1" ?
1.38

Then this molecule: COC(=O)C1=CC(c2ccc(CO)cc2)=CC(C2CC2)N(C)C=C1C(=O)OC (centres undefined)
-0.017

Then this molecule: C=CCC(OC(C)=O)[C@@H]1[C@@H](N(Cc2ccc(-c3cccc(C(F)(F)F)c3)o2)C(=O)c2ccc(-c3ccccc3)cc2)c2cc(OCCCO)ccc2N1C(=O)Cc1ccc(OC)cc1 (some centres undefined)
-0.267

Then this molecule: CC(C)N1CC=CC23O[C@@H]4/C=C\CCCOC(=O)C4[C@H]2C(=O)N(CCCO)[C@@H]3C1=O (some centres undefined)
-0.934

###

SYSTEM_TESTED: Alpha-bungarotoxin (Bungarus multicinctus)
PROCEDURE_TEXT: alpha-bungarotoxin binders on microarray, profiling panel, artefact control for SMM control protein annotation, biochemical, small-molecule microarray, Alexa647 label, 635/667 nm fluorescence (AID 1117)
CONDITION_SUMMARY: alpha-BTX-A647 binding fluorescence, higher = more signal
Recorded composite z-score values for a group of compounds are listed next.
Response field accepts a number only; no unit should be typed.

C=C(CCCC)/C(=C/C[C@@H](OC(=O)c1ccncc1)c1ccc(OCCO)cc1)c1cnc2ccccc2c1 | 3.3

Let's switch to this compound now.
Could you share which composite z-score value was measured for "C/C=C/[C@@H](CCn1cc(CCO[Si](C(C)C)(C(C)C)C(C)C)nn1)[Si](C)(C)c1ccc(OC)cc1" ?
-1.25

###

PROCEDURE_TEXT: A2780 ovarian cancer cell cytotoxicity, dose response, cytotoxicity control, plate reader, dry powder samples (AID 743046);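 also: 0% = neutral control wells and -100% = cytotoxic reference compound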
CONDITION_SUMMARY: series mostly up to 35 µM
Measured potencies and affinities stand elsewhere. Active and inactive are the calls of the source. The rule behind the calls is not given here.
ENDPOINT_NAME: activity change, negative = cytotoxicity

COc1cccc(S(=O)(=O)Nc2ccc3c(c2)[C@H]2C[C@H](CC(=O)NCc4ccccc4F)O[C@H](CO)[C@H]2O3)c1 | inactive
C[C@@H]1CCCCO[C@H](CN(C)Cc2ccc(Cl)c(Cl)c2)[C@@H](C)CN([C@@H](C)CO)C(=O)c2cc(NC(=O)Nc3ccccc3)ccc2O1 | inactive
C[C@@H]1CCCCO[C@H](CN(C)S(=O)(=O)c2ccc(Cl)cc2)[C@H](C)CN([C@@H](C)CO)C(=O)c2cc(NS(=O)(=O)c3ccc(F)cc3)ccc2O1 | inactive

###

PROCEDURE_TEXT: modulators of S6 phosphorylation in cells, primary screen, cell-based, A549, cytoblot, luminescence, serum-stimulated (AID 1158);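 also: serum-stimulated A549 lung adenocarcinoma cells; signal is phosphorylated S6 detected by cytoblot immunostaining with HRP secondary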
CONDITION_SUMMARY: A549 phospho-S6 cytoblot, 5 h, higher = more signal
Please note: Criterion met applies when z-score is 0.2 or greater, and Criterion not met applies otherwise.

Please review the entries below; each comes with its answer.
C=CCOC(=O)[C@H]1[C@@H]2C(=O)O[C@@H](c3ccccc3)[C@@H](c3ccccc3)N2[C@@H](c2ccc(OCCOC(=O)[C@H]3C[C@H]4C(=O)N5CCC[C@H]5C(=O)N4[C@H]3c3cccc(OCCO)c3)cc2)[C@]12C(=O)Nc1ccccc12 | Criterion not met
C=CCN1C(=O)[C@@]2(O[C@@H](CCn3cc(CCO)nn3)[C@H]([Si](C)(C)c3ccc(OC)cc3)[C@H]2C)c2cc(NC(=O)c3ccc(OC)cc3)ccc21 | Criterion not met
COc1ccc([Si](C)(C)[C@H]2[C@H](CCO)O[C@@]3(C(=O)N(Cc4ccc(N5C(=O)c6cccc7cccc5c67)cc4)c4ccccc43)[C@@H]2C)cc1 | Criterion met
C=CCC(OC(C)=O)[C@@H]1[C@@H](N(Cc2cccc3ccccc23)C(=O)c2cccc3ccccc23)c2cc(OCCCO)ccc2N1C(=O)Cc1ccc(OC)cc1 (stereo not given in full) | Criterion met
CC(C)(C)OC(=O)CC[C@@]1(C(=O)N2CCOCC2)N=C(c2ccc(OCCCO)cc2)O[C@@H]1c1ccccc1 | Criterion met

Is the recorded value of z-score equal to or greater than 0.2 for this compound? "C[N+](C)(C)CCCC[C@@H]1NC(=O)[C@H]2C[C@@H](C(=O)NCCCCCN)[C@@H](c3cccc(OCCO)c3)N2C1=O"
Criterion not met

Then this compound: "C=CCN1C(=O)[C@@]2(O[C@@H](CCO)[C@H]([Si](C)(C)c3ccc(OC)cc3)[C@H]2C)c2cc(N(C=O)c3ccccc3)ccc21"
Criterion not met

Then this compound: "O=C(NC1CC1)[C@@H]1c2ccccc2C(=O)N(Cc2ccccc2C(F)(F)F)[C@H]1c1ccc(CO)cc1"
Criterion not met

Then this compound: "CCCCC(=C=CC[C@H](O)c1cccc(OCCO)c1)CCO"
Criterion not met

Then this compound: "COCCOC(=O)N1C(=O)[C@@]2(c3cc(C#CC4(O)CCCCCC4)ccc31)[C@H](c1ccc(O)cc1)N1[C@H](c3ccccc3)[C@H](c3ccccc3)OC(=O)[C@H]1[C@@H]2C(N)=O"
Criterion met
